This collection of values is drawn from ChEMBL document CHEMBL3272064.

assay: Retardation factor, Rm of the compound in acetone-water-silica gel layer; type: physicochemical; conditions: buffer
Output true (1) for records whose Rm is lower than 0.6, false (0) for records at or above 0.6.

Some entries whose results are on file:
Input: Quick check: does `C=Cc1cc(C(=O)NN)ccn1` have Rm under 0.6?
Output: false (0)

Input: Quick check: does `CC(=O)Nc1cc(C(=O)NN)ccn1` have Rm under 0.6?
Output: true (1)

Input: Quick check: does `NNC(=O)c1ccnc(Cl)c1` have Rm under 0.6?
Output: false (0)

Input: Quick check: does `Cc1cc(C(=O)NN)ccn1` have Rm under 0.6?
Output: false (0)

Input: Quick check: does `NNC(=O)c1ccnc(I)c1` have Rm under 0.6?
Output: false (0)

Input: Quick check: does `CCc1cc(C(=O)NN)ccn1` have Rm under 0.6?
Output: false (0)

Input: Quick check: does `CCOc1cc(C(=O)NN)ccn1` have Rm under 0.6?
Output: false (0)

Input: Quick check: does `NNC(=O)c1ccncc1` have Rm under 0.6?
Output: true (1)

Input: Quick check: does `NNC(=O)c1ccnc(Br)c1` have Rm under 0.6?
Output: false (0)

Input: Quick check: does `NNC(=O)c1ccnc(Cc2ccccc2)c1` have Rm under 0.6?
Output: false (0)

As a next step, examine the compound that follows.
Input: Quick check: does `CC(C)Cc1cc(C(=O)NN)ccn1` have Rm under 0.6?
Output: false (0)

---

assay: 1-octanol-phosphate buffer partition coefficient, log P of the compound at pH 7.4; format: physicochemical
MEASUREMENT_TYPE: logD
Reply briefly: the number, and no unit.

Input: Param item = NNC(=O)c1ccncc1 [ISONIAZID] ; retrieve measured logD.
Output: -1.14

---

experiment: Dissociation constant, pKa of the compound at 25 degC by spectrophotometric analysis; type: physicochemical
Measured pKa, listed per entry.
Reply briefly: the number, and no unit.

Input: Param item = `CCN(CC)c1ccccn1` ; retrieve measured pKa.
Output: 7.32

Input: Param item = `CC(=O)NCc1ccccn1` ; retrieve measured pKa.
Output: 4.23

Input: Param item = `CCOc1ccccn1` ; retrieve measured pKa.
Output: 3.47

---

assay: Dissociation constant, pKa of the compound
MEASUREMENT_TYPE: pKa
Reply briefly: the number, and no unit.

Please review the following examples before continuing.
Input: Param item = `Fc1ccccn1` ; retrieve measured pKa.
Output: 0.44

Input: Param item = `CCc1ccccn1` ; retrieve measured pKa.
Output: 5.97

Input: Param item = Nc1ccccn1 [2-AMINOPYRIDINE] ; retrieve measured pKa.
Output: 6.71

Next:
Input: Param item = `CC(=O)Nc1ccccn1` ; retrieve measured pKa.
Output: 4.09

Input: Param item = `Brc1ccccn1` ; retrieve measured pKa.
Output: 0.9

Input: Param item = `c1ccc(Cc2ccccn2)cc1` ; retrieve measured pKa.
Output: 5.13

Input: Param item = `COc1ccccn1` ; retrieve measured pKa.
Output: 3.06

Input: Param item = `C=Cc1ccccn1` ; retrieve measured pKa.
Output: 4.98

Input: Param item = `CCCc1ccccn1` ; retrieve measured pKa.
Output: 5.97

Input: Param item = O=C(O)c1ccncc1 [ISONICOTINIC ACID] ; retrieve measured pKa.
Output: 4.84

---

assay: Retardation factor, Rm of the compound in acetone-water-silica gel layer; type: physicochemical; details: buffer
MEASUREMENT_TYPE: Rm

Please review the following examples before continuing.
Input: Param item = `NNC(=O)c1ccnc([N+](=O)[O-])c1` ; retrieve measured Rm.
Output: 0.577

Input: Param item = `CCN(CC)c1cc(C(=O)NN)ccn1` ; retrieve measured Rm.
Output: 1.383

Input: Param item = `NNC(=O)c1ccnc(N)c1` ; retrieve measured Rm.
Output: 0.32

Next:
Input: Param item = `NNC(=O)c1ccnc(F)c1` ; retrieve measured Rm.
Output: 0.42

Input: Param item = `NNC(=O)c1ccnc(-c2ccccc2)c1` ; retrieve measured Rm.
Output: 1.643

Input: Param item = `COc1cc(C(=O)NN)ccn1` ; retrieve measured Rm.
Output: 0.783

Input: Param item = `CCCc1cc(C(=O)NN)ccn1` ; retrieve measured Rm.
Output: 1.168

Input: Param item = `CC(=O)NCc1cc(C(=O)NN)ccn1` ; retrieve measured Rm.
Output: 0.34
